Please respond with reported pEC50 for every item in the list.
Molecular target: T1, human CD19 expressed on the cell surface (human, UniProt P15391 20-556)
T1 construct: CHO cells were transfected with the full-length cDNA encoding the transmembrane form of CD19; Raji, Daudi and ARH-77 cells carry endogenous CD19; also called CD19 on Raji B tumor cells; CD19 on Daudi B tumor cells
T1 sequence: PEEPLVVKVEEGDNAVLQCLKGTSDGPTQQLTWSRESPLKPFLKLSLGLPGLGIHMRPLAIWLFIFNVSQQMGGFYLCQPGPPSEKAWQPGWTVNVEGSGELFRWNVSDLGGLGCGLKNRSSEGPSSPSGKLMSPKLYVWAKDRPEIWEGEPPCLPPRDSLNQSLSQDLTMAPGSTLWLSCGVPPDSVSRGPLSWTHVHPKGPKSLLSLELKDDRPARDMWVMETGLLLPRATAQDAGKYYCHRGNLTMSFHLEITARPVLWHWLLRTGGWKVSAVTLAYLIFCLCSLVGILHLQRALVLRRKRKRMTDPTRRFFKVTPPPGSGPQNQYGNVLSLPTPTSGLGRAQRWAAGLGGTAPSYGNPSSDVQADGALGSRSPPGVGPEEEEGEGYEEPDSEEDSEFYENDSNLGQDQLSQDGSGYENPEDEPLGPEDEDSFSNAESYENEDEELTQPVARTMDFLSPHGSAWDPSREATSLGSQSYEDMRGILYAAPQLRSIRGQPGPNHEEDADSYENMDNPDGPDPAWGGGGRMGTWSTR
Assay: FACS competition on Raji cells: unlabeled antibody titrated against biotinylated 21D4a at 0.3 ug/mL, Geo Mean (PE); unit from the concentration axis
Answers are plain numbers, as −log10 of the molar value.

Look over these answered cases.
Fill blank: measured pEC50 of the binder 5G7-N19K (antibody, V domains shown, also called 5G7 with N-I-S changed to K-I-S) VH: EVQLVQSGAEVKKPGESLKISCKGSGYSFTSYWIGWVRQMPGKGLEWMGIIYPGDSDTRYSPSFQGQVTISADKSINTAYLQWSSLKASDTAMYYCARGVSMIWGVIMDVWGQGTTVTVSS VL: AIQLTQSPSSLSASVGDRVTITCRASQGISSALAWYQQKPGKAPKLLIYDASSLESGVPSRFSGSGSGTDFTLTISSLQPEDFATYYCQQFNSYPWTFGQGTKVEIK is ____.
8.62

How about this binder: human monoclonal antibody 21D4 (antibody, V domains shown, Fully human antibody from a KM mouse hybridoma, kappa light chain; also called HuMAb 21D4; parental anti-CD19 antibody 21D4) VH: EVQLVQSGAEVKKPGESLKISCKGSGYSFSSSWIGWVRQMPGKGLEWMGIIYPDDSDTRYSPSFQGQVTISADKSIRTAYLQWSSLKASDTAMYYCARHVTMIWGVIIDFWGQGTLVTVSS VL: AIQLTQSPSSLSASVGDRVTITCRASQGISSALAWYQQKPGKAPKLLIYDASSLESGVPSRFSGSGSGTDFTLTISSLQPEDFATYYCQQFNSYPYTFGQGTKLEIK
9.08

Entry to check: human monoclonal antibody 5G7 (antibody, V domains shown, N-linked carbohydrate in the variable (Fab) region at the N-I-S motif starting at position 19) VH: EVQLVQSGAEVKKPGESLNISCKGSGYSFTSYWIGWVRQMPGKGLEWMGIIYPGDSDTRYSPSFQGQVTISADKSINTAYLQWSSLKASDTAMYYCARGVSMIWGVIMDVWGQGTTVTVSS VL: AIQLTQSPSSLSASVGDRVTITCRASQGISSALAWYQQKPGKAPKLLIYDASSLESGVPSRFSGSGSGTDFTLTISSLQPEDFATYYCQQFNSYPWTFGQGTKVEIK
8.55

Cool, now human monoclonal antibody 21D4a (antibody, V domains shown, Same heavy chain as 21D4, paired with the second light chain made by the 21D4 hybridoma) VH: EVQLVQSGAEVKKPGESLKISCKGSGYSFSSSWIGWVRQMPGKGLEWMGIIYPDDSDTRYSPSFQGQVTISADKSIRTAYLQWSSLKASDTAMYYCARHVTMIWGVIIDFWGQGTLVTVSS VL: AIQLTQSPSSLSASVGDRVTITCRASQGISSALAWYQQKPGKAPKLLIYDASSLESGVPSRFSGSGSGTDFTLTISSLQPEDFATYYCQQFNSYPFTFGPGTKVDIK
9.12

Could you do the same for 5G7-N19Q (antibody, V domains shown, Glycosylation-site variant of 5G7; also called 5G7 with N-I-S changed to Q-I-S) VH: EVQLVQSGAEVKKPGESLQISCKGSGYSFTSYWIGWVRQMPGKGLEWMGIIYPGDSDTRYSPSFQGQVTISADKSINTAYLQWSSLKASDTAMYYCARGVSMIWGVIMDVWGQGTTVTVSS VL: AIQLTQSPSSLSASVGDRVTITCRASQGISSALAWYQQKPGKAPKLLIYDASSLESGVPSRFSGSGSGTDFTLTISSLQPEDFATYYCQQFNSYPWTFGQGTKVEIK , please?
8.58

More entries:
Form field: reported pEC50 of human monoclonal antibody 13F1 (antibody, V domains shown) VH: EVQLVQSGAEVKKPGESLQISCKGSGYTFTNYWIAWVRQMPGKGLEWMGIIYPGDSDTRYSPSFQGQVTISADKSISTAYLQWSGLKASDTAMYYCARQGYSSGWRSYYGMGVWGQGTTVTVSS VL: AIQLTQSPSSLSASVGDRVTITCRASQGISSALAWYQQKPGKAPKLLIYDASSLESGVPSRFSGSGSGTDFTLTISSLQPEDFATYYCQQFNSYPHTFGQGTKLEIK
8.71
